system: Candida albicans; assay: Antifungal activity against FLC-resistant Candida albicans 904 assessed as fungal growth inhibition by NCCLS protocol based method; format: functional
Observable: MIC (µg/mL)
State just the number; it will be interpreted in µg/mL.

Please review the entries below; each comes with its answer.
[
  {
    "Molecule": "Cc1ccc(C2(Cn3ccnc3)COC(c3ccc(-c4ccccc4)s3)=N2)cc1 (configuration not stated)",
    "Measured Target": "Candida albicans",
    "Observed Measurement": 4
  },
  {
    "Molecule": "Cc1cccc(C2(Cn3ccnc3)COC(c3ccc(-c4ccccc4)s3)=N2)c1 (configuration not stated)",
    "Measured Target": "Candida albicans",
    "Observed Measurement": 4
  },
  {
    "Molecule": "Clc1ccc(C2(Cn3ccnc3)COC(c3ccc(-c4ccccc4)s3)=N2)cc1 (configuration not stated)",
    "Measured Target": "Candida albicans",
    "Observed Measurement": 2
  }
]

Which measured MIC value corresponds to Fc1ccc(C2(Cn3ccnc3)COC(c3ccc(-c4ccccc4)s3)=N2)cc1 (configuration not stated) ?
0.25

Entry Fc1ccccc1C1(Cn2ccnc2)COC(c2ccc(-c3ccccc3)s2)=N1 (configuration not stated) : reported MIC = ?
1

So what's the measured MIC for this one? Fc1ccc(C2(Cn3ccnc3)COC(c3ccc(-c4ccccc4F)s3)=N2)cc1 (configuration not stated)
1
